target: Phospholipase A1 member A (Rattus norvegicus); assay: IC50 was measured as concentration causing 50% inhibition of lysosomal phospholipase A1 activity.
Sequence (P97535 whole entry): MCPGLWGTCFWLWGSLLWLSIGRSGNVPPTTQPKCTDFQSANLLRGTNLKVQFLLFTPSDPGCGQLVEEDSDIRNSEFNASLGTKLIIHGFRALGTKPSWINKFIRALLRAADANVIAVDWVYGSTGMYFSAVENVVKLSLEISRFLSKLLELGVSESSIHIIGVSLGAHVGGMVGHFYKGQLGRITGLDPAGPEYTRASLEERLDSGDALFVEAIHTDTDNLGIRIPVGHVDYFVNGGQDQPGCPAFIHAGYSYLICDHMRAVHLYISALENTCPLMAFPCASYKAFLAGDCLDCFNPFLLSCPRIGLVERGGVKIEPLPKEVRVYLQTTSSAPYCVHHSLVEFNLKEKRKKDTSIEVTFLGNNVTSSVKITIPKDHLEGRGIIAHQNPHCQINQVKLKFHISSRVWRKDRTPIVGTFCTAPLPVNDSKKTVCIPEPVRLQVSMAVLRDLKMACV
pIC50: −log10 of the molar value.
ATTRIBUTE_MEASURED: pIC50

pIC50 of CC(N)C(=O)NCC1OC(OC2C(N)CC(N)C(OC3OC(CO)C(O)C(N)C3O)C2O)C(O)C(O)C1O (stereo not given) , assay on Phospholipase A1 member A (Rattus norvegicus), is 4.12

Form field pIC50 for item CCNC1CC(N)C(OC2OC(CNC(=O)C(C)N)=CCC2N)C(O)C1OC1OCC(C)(O)C(NC)C1O (stereo not given) on Phospholipase A1 member A (Rattus norvegicus): 4.04

Value (pIC50, Phospholipase A1 member A (Rattus norvegicus)) for record "CCN[C@@H]1C[C@H](N)[C@@H](O[C@H]2OC(CN)=CC[C@H]2N)[C@H](O)[C@H]1O[C@H]1OC[C@](C)(O)[C@H](NC)[C@H]1O" = 3.94

Measured pIC50 for this entry "CN[C@@H]1[C@@H](O)[C@@H](O[C@@H]2[C@@H](O)[C@H](O[C@H]3O[C@H]([C@@H](C)NC)CC[C@H]3N)[C@@H](N)C[C@H]2N)OC[C@]1(C)O" on Phospholipase A1 member A (Rattus norvegicus): 4.03

Noted pIC50 for "NC[C@H]1O[C@H](O[C@H]2[C@H](O)[C@@H](O[C@H]3O[C@H](CO)[C@@H](O)[C@H](N)[C@H]3O)[C@H](N)C[C@@H]2N)[C@H](O)[C@@H](O)[C@@H]1O" , tested on Phospholipase A1 member A (Rattus norvegicus): 4.09
